PROCEDURE_DETAILS: Cytotoxicity, MTT method
Format: cell-based, human
DETAILS: human; HeLa cells, 72 h, MTT; read-out: HeLa IC50 (antiproliferative activity / cytotoxicity)
ATTRIBUTE_MEASURED: IC50 at 72 h (µM)

chemical_smiles=CCCSc1ccc2nc(NC(=O)OC)[nH]c2c1 attribute_measured="IC50 at 72 h" comparison_sign== numeric_readout=0.3
chemical_smiles=CN(C)c1ccc2nc3ccc(=[N+](C)C)cc-3sc2c1 attribute_measured="IC50 at 72 h" comparison_sign== numeric_readout=1.1
chemical_smiles=CN(C)c1ccc(C(=C2C=CC(=[N+](C)C)C=C2)c2ccc(N(C)C)cc2)cc1 attribute_measured="IC50 at 72 h" comparison_sign== numeric_readout=1
chemical_smiles=Cc1cc(-c2ccc(/N=N/c3c(S(=O)(=O)O)cc4cc(S(=O)(=O)O)cc(N)c4c3O)c(C)c2)ccc1/N=N/c1c(S(=O)(=O)O)cc2cc(S(=O)(=O)O)cc(N)c2c1O attribute_measured="IC50 at 72 h" comparison_sign=> numeric_readout=10
chemical_smiles=COC(=O)Nc1nc2ccc(C(=O)c3ccccc3)cc2[nH]1 attribute_measured="IC50 at 72 h" comparison_sign== numeric_readout=0.2

----------
System: S. venezuelensis L3s
PROCEDURE_DETAILS: Staining (uptake) of L3 larvae by the dyes
Format: cell-based, Strongyloides venezuelensis
ATTRIBUTE_MEASURED: Staining 72 h (L3 staining ability)

compound=Nc1c(/N=N/c2ccc(-c3ccc(/N=N/c4cc(S(=O)(=O)O)c5ccccc5c4N)cc3)cc2)cc(S(=O)(=O)O)c2ccccc12 target_under_test="S. venezuelensis L3s" result=No
compound=O=[N+]([O-])c1ccc2c(N=Nc3ccc4ccccc4c3O)c(O)cc(S(=O)(=O)[O-])c2c1.[Na+] target_under_test="S. venezuelensis L3s" result=No
compound="CC[N+](C)(CC)CCC[n+]1c(-c2ccccc2)c2cc(N)ccc2c2ccc(N)cc21.[I-].[I-] [Propidium Iodide]" target_under_test="S. venezuelensis L3s" result=Yes
compound=CN(C)c1ccc(C(=C2C=CC(=[N+](C)C)C=C2)c2ccc(N(C)C)cc2)cc1 target_under_test="S. venezuelensis L3s" result=Yes
compound=Cc1cc(-c2ccc(/N=N/c3c(S(=O)(=O)O)cc4cc(S(=O)(=O)O)cc(N)c4c3O)c(C)c2)ccc1/N=N/c1c(S(=O)(=O)O)cc2cc(S(=O)(=O)O)cc(N)c2c1O target_under_test="S. venezuelensis L3s" result=Yes
compound=CN(C)c1ccc(N=Nc2ccc(S(=O)(=O)[O-])cc2)cc1.[Na+] target_under_test="S. venezuelensis L3s" result=No
compound=Cc1cc(C(=C2C=CC(=N)C=C2)c2ccc(N)cc2)ccc1N target_under_test="S. venezuelensis L3s" result=Yes
compound=CN(C)c1ccc2nc3ccc(=[N+](C)C)cc-3sc2c1 target_under_test="S. venezuelensis L3s" result=Yes
compound=O=C1/C(=C2\Nc3ccc(S(=O)(=O)[O-])cc3C2=O)Nc2ccc(S(=O)(=O)[O-])cc21.[Na+].[Na+] target_under_test="S. venezuelensis L3s" result=No
compound="CC(=O)Oc1ccc2c(c1)Oc1cc(OC(C)=O)ccc1C21OC(=O)c2ccccc21 [Fluorescein Diacetate]" target_under_test="S. venezuelensis L3s" result=No
compound=Oc1ccc2ccccc2c1N=Nc1ccc(N=Nc2ccccc2)cc1 target_under_test="S. venezuelensis L3s" result=No
compound=Oc1cc2c(cc1O)[C@@H]1c3ccc(O)c(O)c3OC[C@]1(O)C2 target_under_test="S. venezuelensis L3s" result=No
compound="Cc1c(C(=O)O)c(O)cc2c1C(=O)c1c(O)c(C3O[C@H](CO)[C@@H](O)[C@H](O)[C@H]3O)c(O)c(O)c1C2=O (stereo in doubt)" target_under_test="S. venezuelensis L3s" result=No
